Target: FGFR3 (Homo sapiens)
Sequence (P22607 23-806, species assumed): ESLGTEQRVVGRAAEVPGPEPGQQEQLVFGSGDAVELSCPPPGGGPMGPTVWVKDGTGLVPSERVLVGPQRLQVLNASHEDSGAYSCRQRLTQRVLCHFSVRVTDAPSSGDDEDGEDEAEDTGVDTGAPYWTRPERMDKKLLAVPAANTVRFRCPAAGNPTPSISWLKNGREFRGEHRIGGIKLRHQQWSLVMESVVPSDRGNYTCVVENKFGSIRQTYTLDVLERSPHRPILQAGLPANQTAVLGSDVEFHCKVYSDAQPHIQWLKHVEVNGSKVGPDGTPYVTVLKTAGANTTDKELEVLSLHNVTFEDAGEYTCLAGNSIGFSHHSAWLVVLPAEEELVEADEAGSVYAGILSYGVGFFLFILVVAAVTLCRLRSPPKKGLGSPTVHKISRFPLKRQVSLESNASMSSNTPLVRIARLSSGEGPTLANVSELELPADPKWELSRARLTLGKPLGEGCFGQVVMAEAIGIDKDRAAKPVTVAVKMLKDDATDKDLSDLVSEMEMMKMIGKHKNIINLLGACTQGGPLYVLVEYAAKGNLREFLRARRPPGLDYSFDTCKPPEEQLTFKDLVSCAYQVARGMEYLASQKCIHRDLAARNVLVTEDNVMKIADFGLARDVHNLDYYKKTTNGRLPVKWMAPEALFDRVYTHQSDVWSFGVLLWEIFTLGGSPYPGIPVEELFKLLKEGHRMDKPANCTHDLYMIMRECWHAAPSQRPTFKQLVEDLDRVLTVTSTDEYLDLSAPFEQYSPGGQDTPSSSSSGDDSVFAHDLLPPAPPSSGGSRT
Experiment: LabChip (Caliper) kinase assay, FGFR3
Assay type: biochemical
Settings: compound at 100 nM, read-out: remaining kinase activity (in %) / percentage of inhibition
reported.property: inhibition at 0.1 µM (%)
Please state the figure in %; there is no need to write the unit.

Enquiry: Quick check: inhibition at 0.1 µM on FGFR3 (Homo sapiens), item `C[C@@H]1O[C@@H](n2c3ccccc3c3c4c(c5c6ccccc6[nH]c5c32)C(=O)NC4=O)C[C@@H](O)[C@H]1O` ?
Return: -1

Enquiry: Quick check: inhibition at 0.1 µM on FGFR3 (Homo sapiens), item C[C@@H]1O[C@@H](n2c3ccccc3c3c4c(c5c6ccccc6[nH]c5c32)CNC4=O)C[C@H](O)[C@H]1O [formula (XIII), N^13-1′-β-L-olivosyl-k252c] ?
Return: -6

Enquiry: Quick check: inhibition at 0.1 µM on FGFR3 (Homo sapiens), item `C[C@@H]1O[C@@H](n2c3ccccc3c3c4c(c5c6ccccc6[nH]c5c32)C(=O)NC4=O)C[C@H](O)[C@H]1O` ?
Return: 3

###

Target: RSK1 (Homo sapiens)
Construct: purchased Carna Biosciences
Sequence (Q15418 whole entry): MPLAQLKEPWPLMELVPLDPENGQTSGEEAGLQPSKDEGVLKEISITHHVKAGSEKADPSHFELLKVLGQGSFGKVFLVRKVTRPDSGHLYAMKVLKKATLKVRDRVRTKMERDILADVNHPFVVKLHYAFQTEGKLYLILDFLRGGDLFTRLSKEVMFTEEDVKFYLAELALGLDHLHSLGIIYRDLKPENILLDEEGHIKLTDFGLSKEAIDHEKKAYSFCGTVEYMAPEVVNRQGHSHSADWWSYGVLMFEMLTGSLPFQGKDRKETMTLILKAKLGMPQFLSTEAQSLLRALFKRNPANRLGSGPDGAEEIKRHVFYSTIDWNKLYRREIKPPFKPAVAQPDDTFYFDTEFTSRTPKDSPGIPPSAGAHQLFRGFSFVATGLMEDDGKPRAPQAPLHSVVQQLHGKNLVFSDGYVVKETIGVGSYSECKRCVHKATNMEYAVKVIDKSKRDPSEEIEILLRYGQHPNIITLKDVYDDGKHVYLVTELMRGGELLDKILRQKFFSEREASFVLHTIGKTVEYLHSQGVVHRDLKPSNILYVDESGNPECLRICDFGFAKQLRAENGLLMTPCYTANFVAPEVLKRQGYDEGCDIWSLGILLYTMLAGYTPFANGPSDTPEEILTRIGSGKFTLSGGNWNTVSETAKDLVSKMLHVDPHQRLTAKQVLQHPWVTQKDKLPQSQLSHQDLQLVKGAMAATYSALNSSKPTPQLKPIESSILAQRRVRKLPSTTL
Assay: LabChip (Caliper) kinase assay, RSK1
Format: biochemical
Settings: compound at 100 nM, read-out: remaining kinase activity (in %) / percentage of inhibition
reported.property: inhibition at 0.1 µM

Enquiry: Name the reported inhibition at 0.1 µM value associated with the molecule C[C@@H]1O[C@@H](n2c3ccccc3c3c4c(c5c6ccccc6[nH]c5c32)CNC4=O)[C@H](O)[C@H](O)[C@H]1O [formula (XII), N^13-1′-β-L-rhamnosyl-k252c]
Return: 7%

Enquiry: Name the reported inhibition at 0.1 µM value associated with the molecule C[C@@H]1O[C@@H](n2c3ccccc3c3c4c(c5c6ccccc6[nH]c5c32)CNC4=O)C[C@H](O)[C@H]1O [formula (XIII), N^13-1′-β-L-olivosyl-k252c]
Return: 56%

Enquiry: Name the reported inhibition at 0.1 µM value associated with the molecule `C[C@@H]1O[C@@H](n2c3ccccc3c3c4c(c5c6ccccc6[nH]c5c32)C(=O)NC4=O)C[C@H](O)[C@H]1O`
Return: 77%

###

Target: Dyrk1a (Homo sapiens)
Construct: purchased Upstate
Test: LabChip (Caliper) kinase assay, Dyrk1a
Type: biochemical
Settings: compound at 100 nM, read-out: remaining kinase activity (in %) / percentage of inhibition
# Y = inhibition at 0.1 µM below 70% (exclusive); N = inhibition at 0.1 µM at/above 70%

Enquiry: # TODO verify inhibition at 0.1 µM < 70% strictly for this compound: C[C@@H]1O[C@@H](n2c3ccccc3c3c4c(c5c6ccccc6[nH]c5c32)C(=O)NC4=O)[C@H](O)[C@H](O)[C@H]1O [formula (III), N^13-1′-β-L-rhamnosylarcyriaflavin]
Return: N

Enquiry: # TODO verify inhibition at 0.1 µM < 70% strictly for this compound: C[C@@H]1O[C@@H](n2c3ccccc3c3c4c(c5c6ccccc6[nH]c5c32)CNC4=O)C[C@@H](O)[C@H]1O [formula (XIV), N^13-1′-β-L-digitoxosyl-k252c]
Return: N

Enquiry: # TODO verify inhibition at 0.1 µM < 70% strictly for this compound: C[C@@H]1O[C@@H](n2c3ccccc3c3c4c(c5c6ccccc6[nH]c5c32)CNC4=O)[C@H](O)[C@H](O)[C@H]1O [formula (XII), N^13-1′-β-L-rhamnosyl-k252c]
Return: N

Enquiry: # TODO verify inhibition at 0.1 µM < 70% strictly for this compound: C[C@@H]1O[C@@H](n2c3ccccc3c3c4c(c5c6ccccc6[nH]c5c32)CNC4=O)C[C@H](O)[C@H]1O [formula (XIII), N^13-1′-β-L-olivosyl-k252c]
Return: N

Enquiry: # TODO verify inhibition at 0.1 µM < 70% strictly for this compound: C[C@H]1O[C@@H](n2c3ccccc3c3c4c(c5c6ccccc6[nH]c5c32)CNC4=O)C[C@@H](O)[C@@H]1O [formula (XV), N^13-1′-β-D-olivosyl-k252c]
Return: Y

###

So I've got IC50 readings for JAK2 (Homo sapiens, UniProt O60674), take a look.

Enquiry: Name the reported IC50 value associated with the compound C[C@]12O[C@H](C[C@H](O)[C@H]1O)n1c3ccccc3c3c4c(c5c6ccccc6n2c5c31)CNC4=O [formula (XVII), N^12-5′(S)-N^13-1′-(R)-L-olivosyl-k252c]
Return: 0.57 nM

Enquiry: Name the reported IC50 value associated with the compound `C[C@]12O[C@H](C[C@H](O)[C@H]1O)n1c3ccccc3c3c4c(c5c6ccccc6n2c5c31)C(=O)NC4=O`
Return: 0.74 nM

Enquiry: Name the reported IC50 value associated with the compound `C[C@]12O[C@H](C[C@@H](O)[C@H]1O)n1c3ccccc3c3c4c(c5c6ccccc6n2c5c31)C(=O)NC4=O`
Return: 1.2 nM

Enquiry: Name the reported IC50 value associated with the compound C[C@]12O[C@H]([C@H](O)[C@H](O)[C@H]1O)n1c3ccccc3c3c4c(c5c6ccccc6n2c5c31)CNC4=O [formula (XVI), N^12-5′(S)-N^13-1′-(R)-L-rhamnosyl-k252c]
Return: 0.43 nM

Enquiry: Name the reported IC50 value associated with the compound `C[C@]12O[C@H](C[C@@H](O)[C@H]1O)n1c3ccccc3c3c4c(c5c6ccccc6n2c5c31)CNC4=O`
Return: 0.53 nM

###

Molecular target: KDR (Homo sapiens)
Construct: purchased Carna Biosciences
Sequence (P35968 20-1356): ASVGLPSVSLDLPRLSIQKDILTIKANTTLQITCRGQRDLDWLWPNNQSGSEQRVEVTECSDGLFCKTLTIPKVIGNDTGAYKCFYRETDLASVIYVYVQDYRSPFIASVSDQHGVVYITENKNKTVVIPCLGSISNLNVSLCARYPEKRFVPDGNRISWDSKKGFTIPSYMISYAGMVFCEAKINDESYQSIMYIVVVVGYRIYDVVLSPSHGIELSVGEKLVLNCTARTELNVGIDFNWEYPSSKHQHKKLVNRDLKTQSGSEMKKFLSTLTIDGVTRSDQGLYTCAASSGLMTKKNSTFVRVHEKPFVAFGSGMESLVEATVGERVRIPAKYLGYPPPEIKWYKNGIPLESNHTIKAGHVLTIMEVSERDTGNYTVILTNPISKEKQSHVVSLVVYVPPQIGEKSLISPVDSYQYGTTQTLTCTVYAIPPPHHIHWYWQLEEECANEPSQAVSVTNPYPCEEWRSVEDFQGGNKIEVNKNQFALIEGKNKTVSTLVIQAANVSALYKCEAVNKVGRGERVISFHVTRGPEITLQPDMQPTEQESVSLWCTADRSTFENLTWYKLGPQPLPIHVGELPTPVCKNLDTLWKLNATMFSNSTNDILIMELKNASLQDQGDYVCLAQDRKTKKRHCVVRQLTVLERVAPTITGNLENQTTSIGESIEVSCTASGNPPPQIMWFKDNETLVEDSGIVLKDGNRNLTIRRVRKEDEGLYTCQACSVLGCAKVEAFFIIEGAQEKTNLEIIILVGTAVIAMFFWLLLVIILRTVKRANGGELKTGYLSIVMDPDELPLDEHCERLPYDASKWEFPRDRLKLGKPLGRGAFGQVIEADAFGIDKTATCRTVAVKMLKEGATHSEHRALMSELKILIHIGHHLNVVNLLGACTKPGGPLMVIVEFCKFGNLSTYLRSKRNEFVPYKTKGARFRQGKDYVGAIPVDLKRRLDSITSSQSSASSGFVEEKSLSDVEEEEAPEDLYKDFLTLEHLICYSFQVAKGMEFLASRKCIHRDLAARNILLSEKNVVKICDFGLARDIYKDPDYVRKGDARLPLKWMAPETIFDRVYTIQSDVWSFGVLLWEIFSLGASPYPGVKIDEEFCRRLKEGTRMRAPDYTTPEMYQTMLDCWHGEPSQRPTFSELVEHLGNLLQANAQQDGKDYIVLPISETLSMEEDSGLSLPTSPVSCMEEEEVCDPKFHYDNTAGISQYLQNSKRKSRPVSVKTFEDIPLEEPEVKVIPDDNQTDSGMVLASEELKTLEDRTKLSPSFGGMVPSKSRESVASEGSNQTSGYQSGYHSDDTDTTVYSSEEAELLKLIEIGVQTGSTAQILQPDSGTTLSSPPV
Test: LabChip (Caliper) kinase assay, KDR
Type: biochemical
Conditions: compound at 100 nM, read-out: remaining kinase activity (in %) / percentage of inhibition
# condition met = inhibition at 0.1 µM below 20% (exclusive); condition not met = inhibition at 0.1 µM at/above 20%

Enquiry: # TODO verify inhibition at 0.1 µM < 20% strictly for this compound: `C[C@H]1O[C@@H](n2c3ccccc3c3c4c(c5c6ccccc6[nH]c5c32)C(=O)NC4=O)C[C@@H](O)[C@@H]1O`
Return: condition not met

Enquiry: # TODO verify inhibition at 0.1 µM < 20% strictly for this compound: C[C@@H]1O[C@@H](n2c3ccccc3c3c4c(c5c6ccccc6[nH]c5c32)CNC4=O)C[C@@H](O)[C@H]1O [formula (XIV), N^13-1′-β-L-digitoxosyl-k252c]
Return: condition met

Enquiry: # TODO verify inhibition at 0.1 µM < 20% strictly for this compound: `C[C@@H]1O[C@@H](n2c3ccccc3c3c4c(c5c6ccccc6[nH]c5c32)C(=O)NC4=O)[C@H](O)[C@H](O)[C@H]1O`
Return: condition not met

Enquiry: # TODO verify inhibition at 0.1 µM < 20% strictly for this compound: C[C@@H]1O[C@@H](n2c3ccccc3c3c4c(c5c6ccccc6[nH]c5c32)CNC4=O)[C@H](O)[C@H](O)[C@H]1O [formula (XII), N^13-1′-β-L-rhamnosyl-k252c]
Return: condition met

Enquiry: # TODO verify inhibition at 0.1 µM < 20% strictly for this compound: C[C@@H]1O[C@@H](n2c3ccccc3c3c4c(c5c6ccccc6[nH]c5c32)CNC4=O)C[C@H](O)[C@H]1O [formula (XIII), N^13-1′-β-L-olivosyl-k252c]
Return: condition not met

Enquiry: # TODO verify inhibition at 0.1 µM < 20% strictly for this compound: `C[C@@H]1O[C@@H](n2c3ccccc3c3c4c(c5c6ccccc6[nH]c5c32)C(=O)NC4=O)C[C@@H](O)[C@H]1O`
Return: condition not met

Enquiry: # TODO verify inhibition at 0.1 µM < 20% strictly for this compound: `C[C@@H]1O[C@@H](n2c3ccccc3c3c4c(c5c6ccccc6[nH]c5c32)C(=O)NC4=O)C[C@H](O)[C@H]1O`
Return: condition not met

Enquiry: # TODO verify inhibition at 0.1 µM < 20% strictly for this compound: C[C@H]1O[C@@H](n2c3ccccc3c3c4c(c5c6ccccc6[nH]c5c32)CNC4=O)C[C@@H](O)[C@@H]1O [formula (XV), N^13-1′-β-D-olivosyl-k252c]
Return: condition met

###

Target: AurA (Homo sapiens, UniProt O14965)
Construct: purchased Carna Biosciences
Sequence (O14965 whole entry): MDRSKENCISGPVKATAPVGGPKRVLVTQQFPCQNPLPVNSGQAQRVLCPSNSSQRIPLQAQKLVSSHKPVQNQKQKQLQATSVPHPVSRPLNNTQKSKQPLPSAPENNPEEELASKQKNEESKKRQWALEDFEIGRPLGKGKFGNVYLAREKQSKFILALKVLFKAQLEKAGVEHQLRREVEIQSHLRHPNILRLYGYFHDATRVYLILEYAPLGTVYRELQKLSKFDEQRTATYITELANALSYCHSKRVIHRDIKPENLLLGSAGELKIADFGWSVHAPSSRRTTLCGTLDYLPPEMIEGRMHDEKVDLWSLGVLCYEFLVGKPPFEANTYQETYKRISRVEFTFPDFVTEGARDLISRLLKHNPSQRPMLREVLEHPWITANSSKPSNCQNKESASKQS
Test: LabChip (Caliper) kinase assay, AurA
Assay type: biochemical
Settings: compound at 100 nM, read-out: remaining kinase activity (in %) / percentage of inhibition
reported.property: inhibition at 0.1 µM

Enquiry: Name the reported inhibition at 0.1 µM value associated with the compound C[C@@H]1O[C@@H](n2c3ccccc3c3c4c(c5c6ccccc6[nH]c5c32)CNC4=O)C[C@@H](O)[C@H]1O [formula (XIV), N^13-1′-β-L-digitoxosyl-k252c]
Return: 5%

Enquiry: Name the reported inhibition at 0.1 µM value associated with the compound C[C@H]1O[C@@H](n2c3ccccc3c3c4c(c5c6ccccc6[nH]c5c32)C(=O)NC4=O)C[C@@H](O)[C@@H]1O [formula (VI), N^13-1′-β-D-olivosylarcyriaflavin]
Return: 13%

Enquiry: Name the reported inhibition at 0.1 µM value associated with the compound C[C@@H]1O[C@@H](n2c3ccccc3c3c4c(c5c6ccccc6[nH]c5c32)CNC4=O)C[C@H](O)[C@H]1O [formula (XIII), N^13-1′-β-L-olivosyl-k252c]
Return: 24%

Enquiry: Name the reported inhibition at 0.1 µM value associated with the compound C[C@@H]1O[C@@H](n2c3ccccc3c3c4c(c5c6ccccc6[nH]c5c32)C(=O)NC4=O)[C@H](O)[C@H](O)[C@H]1O [formula (III), N^13-1′-β-L-rhamnosylarcyriaflavin]
Return: 5%

Enquiry: Name the reported inhibition at 0.1 µM value associated with the compound C[C@@H]1O[C@@H](n2c3ccccc3c3c4c(c5c6ccccc6[nH]c5c32)CNC4=O)[C@H](O)[C@H](O)[C@H]1O [formula (XII), N^13-1′-β-L-rhamnosyl-k252c]
Return: 3%
